# nuclear beta-catenin stimulation per entry
procedure_text: Wnt pathway potentiators raising nuclear beta-catenin – imaging, WNT3A-conditioned medium, mouse C2C12, NPC library, primary screen (AID 1117326); also: reference of the scale not given here
experimental_setup: stimulation, at 2 µM, stronger effect = higher value
Dear colleague, please return just the value in %, with no unit written.

compound	measured_quantity	u	reported
O=C1[C@H]2CCCC[C@H]2C(=O)N1CCCCN1CCN(c2nsc3ccccc23)CC1	nuclear beta-catenin stimulation	%	1
CNCC(O)c1ccc(O)c(O)c1 (stereo unspecified)	nuclear beta-catenin stimulation	%	-0.9
CS(=O)(=O)Nc1ccc([N+](=O)[O-])cc1Oc1ccccc1	nuclear beta-catenin stimulation	%	-0.6
COc1ccccc1N1CCN(CC(O)COc2cccc3ccccc23)CC1 (stereo unspecified)	nuclear beta-catenin stimulation	%	1.7
CC1CCC(NC(=O)N(CCCl)N=O)CC1 (stereo unspecified)	nuclear beta-catenin stimulation	%	4.9

I have this compound here, `NC[C@H]1O[C@H](O[C@H]2[C@H](O)[C@@H](O[C@H]3O[C@H](CO)[C@@H](O)[C@H](N)[C@H]3O)[C@H](N)C[C@@H]2N)[C@H](N)[C@@H](O)[C@@H]1O` , and I need its recorded nuclear beta-catenin stimulation. -1.6

Please look up its nuclear beta-catenin stimulation: CC(C)NCC(O)COc1ccc(CCOCC2CC2)cc1 (stereo unspecified) 3.7

GET /values?readout=nuclear beta-catenin stimulation&item= `CCN(CC)CCNC(=O)COc1ccc(OC)cc1` 1.9

# query: nuclear beta-catenin stimulation of entry `CCOC(=O)NNc1nncc2ccccc12` 5.1

State the recorded nuclear beta-catenin stimulation for this entry: `Cc1c(N(C)CS(=O)(=O)O)c(=O)n(-c2ccccc2)n1C` 0.9

For the compound `COc1ccc(CN2CCN(C(c3ccc(F)cc3)c3ccc(F)cc3)CC2)c(OC)c1OC` , what nuclear beta-catenin stimulation is on record? 5.6
